Sourced from the supplement of paper PMC4466140

# Target desc: ScMyo3
# Test method notes: SPOT peptide array binding signal intensity (averaged, normalized) (arbitrary units (background-subtracted, floor 0; scale differs between SH3 domains)); higher = stronger binding of the SH3 domain to the peptide
Give SPOT peptide array binding signal intensity for every item shown.

Below: 10 binders and their reported SPOT peptide array binding signal intensity.
SKAKRPKFLLDLQIK    1.5
ILARAILTIPRVLDK    ≤ 0
SSSSTPPTLPPRRIE    111
DRIRMFIRFPKFLLE    1
FVLRYYILIPHEQWD    1.5
RAPPPVPKKPSSRIA    80.5
NLDRSKISLPDFDDE    3.5
KTITLEVESSDTIDN    ≤ 0
PHNPSPFFPPPDFND    920
IHTRRPSSTSQYLIR    82

Go through the items and report each one's SPOT peptide array binding signal intensity.
1. QHQQRQPKRPKRYSL
2. RKRRTHLRLPLIRSN
3. TTAPALPSLPPPPLL
4. NRLRKRLNLPSEISI

Result:
4.25
≤ 0
2800
≤ 0

Go through the items and report each one's SPOT peptide array binding signal intensity.
1. TIRRRAPLSLLESHT
2. ISNFVPPNLPMRRFK

Result:
1: ≤ 0; 2: 17.2
